Molecular target: SEAP-His (Homo sapiens, UniProt P05187)
Sequence (P05187 23-511 limits assumed): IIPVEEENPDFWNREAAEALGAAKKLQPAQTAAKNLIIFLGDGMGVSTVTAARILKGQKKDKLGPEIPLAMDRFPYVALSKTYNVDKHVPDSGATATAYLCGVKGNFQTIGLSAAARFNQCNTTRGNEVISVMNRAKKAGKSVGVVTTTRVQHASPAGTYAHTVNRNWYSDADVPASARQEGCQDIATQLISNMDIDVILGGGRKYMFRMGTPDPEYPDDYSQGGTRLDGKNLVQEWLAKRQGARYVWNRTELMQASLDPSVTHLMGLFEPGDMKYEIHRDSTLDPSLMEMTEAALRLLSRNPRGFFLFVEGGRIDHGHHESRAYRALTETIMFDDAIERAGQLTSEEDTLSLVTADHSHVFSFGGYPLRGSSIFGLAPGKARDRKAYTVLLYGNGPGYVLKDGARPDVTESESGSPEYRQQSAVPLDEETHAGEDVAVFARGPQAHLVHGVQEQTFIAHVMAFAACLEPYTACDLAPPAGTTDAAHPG
Assay: Selectivity ELISA of humanized antibodies for human Eph receptor
Type: binding
Conditions: coated protein 1 nM
readout: SEAP-His: absorbance at 450 nm, percentage with respect to hEphA4-SEAP-His as 100% (%)
Return type: number; implicit unit %.

{"molecule": "153 (antibody, V domains shown, synthetic humanized antibody heavy chain variable region sequence; synthetic humanized antibody light chain variable region sequence) VH: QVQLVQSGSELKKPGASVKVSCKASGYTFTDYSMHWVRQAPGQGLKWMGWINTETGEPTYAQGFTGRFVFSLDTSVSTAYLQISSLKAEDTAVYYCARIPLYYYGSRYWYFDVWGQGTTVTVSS VL: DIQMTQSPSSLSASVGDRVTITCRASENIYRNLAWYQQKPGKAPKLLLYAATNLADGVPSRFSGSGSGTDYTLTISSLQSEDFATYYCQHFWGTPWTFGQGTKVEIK", "units symbol": "%", "endpoint result": 5.9}

Req: Consider the molecule shown here: 93 (antibody, V domains shown, constant regions without entry; synthetic humanized antibody light chain variable region sequence; synthetic humanized antibody heavy chain variable region sequence) VL: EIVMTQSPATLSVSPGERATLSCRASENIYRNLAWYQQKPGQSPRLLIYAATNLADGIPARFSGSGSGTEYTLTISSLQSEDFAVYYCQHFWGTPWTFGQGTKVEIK VH: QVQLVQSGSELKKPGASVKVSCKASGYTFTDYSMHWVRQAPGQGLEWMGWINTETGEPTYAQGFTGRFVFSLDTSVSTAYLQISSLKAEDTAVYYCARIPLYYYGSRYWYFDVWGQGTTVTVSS What is its recorded SEAP-His: absorbance at 450 nm, percentage with respect to hEphA4-SEAP-His as 100%?
Resp: 5.0
